Data origin: BigSolDB 2.1

- condition.info: in 1,4-dioxane, 283.15 K
observed.property: solubility (mole fraction)

>>> observed_measurement("OC[C@H]1O[C@@H](Oc2ccc(O)cc2)[C@H](O)[C@@H](O)[C@@H]1O")
0.0046

###

- condition.info: in 1,4-dioxane, 313.15 K
observed.property: solubility (mole fraction)

>>> observed_measurement("OC[C@H]1O[C@@H](Oc2ccc(O)cc2)[C@H](O)[C@@H](O)[C@@H]1O")
0.00696

###

- condition.info: in 1,4-dioxane, 303.15 K
observed.property: solubility (mole fraction)

>>> observed_measurement("OC[C@H]1O[C@@H](Oc2ccc(O)cc2)[C@H](O)[C@@H](O)[C@@H]1O")
0.00579

###

- condition.info: in n-propanol, 283.15 K
observed.property: solubility (mole fraction)

>>> observed_measurement("OC[C@H]1O[C@@H](Oc2ccc(O)cc2)[C@H](O)[C@@H](O)[C@@H]1O")
0.000787

###

- condition.info: in water, 303.15 K
observed.property: solubility (mole fraction)

>>> observed_measurement("OC[C@H]1O[C@@H](Oc2ccc(O)cc2)[C@H](O)[C@@H](O)[C@@H]1O")
0.0108

###

- condition.info: in ethanol, 293.15 K
observed.property: solubility (mole fraction)

>>> observed_measurement("OC[C@H]1O[C@@H](Oc2ccc(O)cc2)[C@H](O)[C@@H](O)[C@@H]1O")
0.00274

###

- condition.info: in methanol, 283.15 K
observed.property: solubility (mole fraction)

>>> observed_measurement("OC[C@H]1O[C@@H](Oc2ccc(O)cc2)[C@H](O)[C@@H](O)[C@@H]1O")
0.0112

###

- condition.info: in sec-butanol, 323.15 K
observed.property: solubility (mole fraction)

>>> observed_measurement("OC[C@H]1O[C@@H](Oc2ccc(O)cc2)[C@H](O)[C@@H](O)[C@@H]1O")
0.00226

###

- condition.info: in dichloromethane, 298.15 K
observed.property: solubility (mole fraction)

>>> observed_measurement("OC[C@H]1O[C@@H](Oc2ccc(O)cc2)[C@H](O)[C@@H](O)[C@@H]1O")
"1.3e-05"

###

- condition.info: in ethanol, 303.15 K
observed.property: solubility (mole fraction)

>>> observed_measurement("OC[C@H]1O[C@@H](Oc2ccc(O)cc2)[C@H](O)[C@@H](O)[C@@H]1O")
0.00351

###

- condition.info: in n-pentanol, 303.15 K
observed.property: solubility (mole fraction)

>>> observed_measurement("OC[C@H]1O[C@@H](Oc2ccc(O)cc2)[C@H](O)[C@@H](O)[C@@H]1O")
0.000689

###

- condition.info: in methanol, 313.15 K
observed.property: solubility (mole fraction)

>>> observed_measurement("OC[C@H]1O[C@@H](Oc2ccc(O)cc2)[C@H](O)[C@@H](O)[C@@H]1O")
0.0181

###

- condition.info: in n-pentanol, 283.15 K
observed.property: solubility (mole fraction)

>>> observed_measurement("OC[C@H]1O[C@@H](Oc2ccc(O)cc2)[C@H](O)[C@@H](O)[C@@H]1O")
0.000338

###

- condition.info: in dichloromethane, 283.15 K
observed.property: solubility (mole fraction)

>>> observed_measurement("OC[C@H]1O[C@@H](Oc2ccc(O)cc2)[C@H](O)[C@@H](O)[C@@H]1O")
"4e-06"

###

- condition.info: in acetonitrile, 293.15 K
observed.property: solubility (mole fraction)

>>> observed_measurement("OC[C@H]1O[C@@H](Oc2ccc(O)cc2)[C@H](O)[C@@H](O)[C@@H]1O")
"7.2e-05"

###

- condition.info: in ethyl acetate, 283.15 K
observed.property: solubility (mole fraction)

>>> observed_measurement("OC[C@H]1O[C@@H](Oc2ccc(O)cc2)[C@H](O)[C@@H](O)[C@@H]1O")
0.000155

###

- condition.info: in n-pentanol, 293.15 K
observed.property: solubility (mole fraction)

>>> observed_measurement("OC[C@H]1O[C@@H](Oc2ccc(O)cc2)[C@H](O)[C@@H](O)[C@@H]1O")
0.000471

###

- condition.info: in n-pentanol, 313.15 K
observed.property: solubility (mole fraction)

>>> observed_measurement("OC[C@H]1O[C@@H](Oc2ccc(O)cc2)[C@H](O)[C@@H](O)[C@@H]1O")
0.000851

###

- condition.info: in ethyl acetate, 303.15 K
observed.property: solubility (mole fraction)

>>> observed_measurement("OC[C@H]1O[C@@H](Oc2ccc(O)cc2)[C@H](O)[C@@H](O)[C@@H]1O")
0.000166

###

- condition.info: in dichloromethane, 293.15 K
observed.property: solubility (mole fraction)

>>> observed_measurement("OC[C@H]1O[C@@H](Oc2ccc(O)cc2)[C@H](O)[C@@H](O)[C@@H]1O")
"1e-05"

###

- condition.info: in methanol, 323.15 K
observed.property: solubility (mole fraction)

>>> observed_measurement("OC[C@H]1O[C@@H](Oc2ccc(O)cc2)[C@H](O)[C@@H](O)[C@@H]1O")
0.0226

###

- condition.info: in sec-butanol, 303.15 K
observed.property: solubility (mole fraction)

>>> observed_measurement("OC[C@H]1O[C@@H](Oc2ccc(O)cc2)[C@H](O)[C@@H](O)[C@@H]1O")
0.000969

###

- condition.info: in ethanol, 283.15 K
observed.property: solubility (mole fraction)

>>> observed_measurement("OC[C@H]1O[C@@H](Oc2ccc(O)cc2)[C@H](O)[C@@H](O)[C@@H]1O")
0.00228

###

- condition.info: in isopropanol, 283.15 K
observed.property: solubility (mole fraction)

>>> observed_measurement("OC[C@H]1O[C@@H](Oc2ccc(O)cc2)[C@H](O)[C@@H](O)[C@@H]1O")
0.000532

###

- condition.info: in sec-butanol, 283.15 K
observed.property: solubility (mole fraction)

>>> observed_measurement("OC[C@H]1O[C@@H](Oc2ccc(O)cc2)[C@H](O)[C@@H](O)[C@@H]1O")
0.000355

###

- condition.info: in 1,4-dioxane, 293.15 K
observed.property: solubility (mole fraction)

>>> observed_measurement("OC[C@H]1O[C@@H](Oc2ccc(O)cc2)[C@H](O)[C@@H](O)[C@@H]1O")
0.00491

###

- condition.info: in dichloromethane, 288.15 K
observed.property: solubility (mole fraction)

>>> observed_measurement("OC[C@H]1O[C@@H](Oc2ccc(O)cc2)[C@H](O)[C@@H](O)[C@@H]1O")
"7e-06"

###

- condition.info: in ethyl acetate, 323.15 K
observed.property: solubility (mole fraction)

>>> observed_measurement("OC[C@H]1O[C@@H](Oc2ccc(O)cc2)[C@H](O)[C@@H](O)[C@@H]1O")
0.00018

###

- condition.info: in acetonitrile, 323.15 K
observed.property: solubility (mole fraction)

>>> observed_measurement("OC[C@H]1O[C@@H](Oc2ccc(O)cc2)[C@H](O)[C@@H](O)[C@@H]1O")
0.000365

###

- condition.info: in isopropanol, 323.15 K
observed.property: solubility (mole fraction)

>>> observed_measurement("OC[C@H]1O[C@@H](Oc2ccc(O)cc2)[C@H](O)[C@@H](O)[C@@H]1O")
0.00259

###

- condition.info: in acetonitrile, 283.15 K
observed.property: solubility (mole fraction)

>>> observed_measurement("OC[C@H]1O[C@@H](Oc2ccc(O)cc2)[C@H](O)[C@@H](O)[C@@H]1O")
"3.5e-05"

###

- condition.info: in acetone, 283.15 K
observed.property: solubility (mole fraction)

>>> observed_measurement("OC[C@H]1O[C@@H](Oc2ccc(O)cc2)[C@H](O)[C@@H](O)[C@@H]1O")
0.000601

###

- condition.info: in water, 323.15 K
observed.property: solubility (mole fraction)

>>> observed_measurement("OC[C@H]1O[C@@H](Oc2ccc(O)cc2)[C@H](O)[C@@H](O)[C@@H]1O")
0.0283

###

- condition.info: in ethanol, 323.15 K
observed.property: solubility (mole fraction)

>>> observed_measurement("OC[C@H]1O[C@@H](Oc2ccc(O)cc2)[C@H](O)[C@@H](O)[C@@H]1O")
0.00582

###

- condition.info: in acetone, 323.15 K
observed.property: solubility (mole fraction)

>>> observed_measurement("OC[C@H]1O[C@@H](Oc2ccc(O)cc2)[C@H](O)[C@@H](O)[C@@H]1O")
0.00161

###

- condition.info: in n-propanol, 303.15 K
observed.property: solubility (mole fraction)

>>> observed_measurement("OC[C@H]1O[C@@H](Oc2ccc(O)cc2)[C@H](O)[C@@H](O)[C@@H]1O")
0.00142

###

- condition.info: in acetonitrile, 313.15 K
observed.property: solubility (mole fraction)

>>> observed_measurement("OC[C@H]1O[C@@H](Oc2ccc(O)cc2)[C@H](O)[C@@H](O)[C@@H]1O")
0.000239

###

- condition.info: in n-propanol, 323.15 K
observed.property: solubility (mole fraction)

>>> observed_measurement("OC[C@H]1O[C@@H](Oc2ccc(O)cc2)[C@H](O)[C@@H](O)[C@@H]1O")
0.00248
